Ref: paper PMC5540273

# System: HIPK1
# Experimental Conditions: concentration: 1 μM,replicates: in singlicate; n = 1;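 further: KINOMEscan kinase panel screen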

Compound: COC(=O)Nc1nc2cc(Oc3ccc(NC(=O)Nc4cc(C(F)(F)F)ccc4Cl)cc3)ccc2[nH]1.Cl
Test Target: HIPK1
%Inh, %: 0
//
Compound: CNC(=O)c1ccccc1Nc1nc(Nc2cccc(CS(C)(=O)=O)c2)ncc1C.O=CO
Test Target: HIPK1
%Inh, %: 93.5
//
Compound: Cc1ccc(CC(=O)N2CCc3cc(-c4cn(C)c5ncnc(N)c45)ccc32)cc1
Test Target: HIPK1
%Inh, %: 6
//
Compound: Cn1ccc2ncnc(Oc3ccc(NC(=O)Nc4cc(C(C)(C)C)on4)c(Cl)c3)c21
Test Target: HIPK1
%Inh, %: 36
//
Compound: Cn1cc(-c2cccc3c(N)c(C(N)=O)nnc23)cn1
Test Target: HIPK1
%Inh, %: 68
//
Compound: COc1cc2nccc(Nc3ccc(Oc4ccccc4)cc3)c2cc1OC.Cl
Test Target: HIPK1
%Inh, %: 0
//
Compound: COc1ccc(Nc2nccc(N3CCC(NC(=O)c4cccc(C#N)c4)C3)n2)cc1 (stereo not drawn)
Test Target: HIPK1
%Inh, %: 0
//
Compound: O=C(Nc1ccc(Oc2ccc3nc(NC(=O)C4CC4)cn3n2)c(F)c1)c1cccn(-c2ccccc2)c1=O
Test Target: HIPK1
%Inh, %: 40
//
Compound: Cc1ccn2nc(-c3ccc(F)cc3)c(-c3ccncc3)c2c1.Cl
Test Target: HIPK1
%Inh, %: 0

====

%Inh: recorded values
# Test system: PLK4
# Experimental Conditions: concentration: 1 μM,replicates: in singlicate; n = 1
Readout: %Inh (%)

Compound: NC(=O)Nc1sc(-c2ccc(F)cc2)cc1C(N)=O [GW789449]
Test Target: PLK4
Result Value: 26

Compound: Cl.c1ccc(Oc2ccc(Nc3ccnc4cc(-c5ccc(CN6CCNCC6)o5)ccc34)cc2)nc1 [GW567142]
Test Target: PLK4
Result Value: 16

Compound: Cn1ccc2ncnc(Oc3ccc(NC(=O)Nc4cc(C(C)(C)C)on4)c(Cl)c3)c21
Test Target: PLK4
Result Value: 19

Compound: CN1CCN(CCCNc2nccc(-c3c(-c4ccc(F)cc4)nn4cc(C(N)=O)ccc34)n2)CC1 [GW622475]
Test Target: PLK4
Result Value: 10

Compound: COC(=O)c1cccc(NC(=O)NC2CCN(c3ccnc(NCc4ccc(F)cc4)n3)CC2)c1 [GSK1379860]
Test Target: PLK4
Result Value: 0

Compound: c1ccc(Oc2ccc(Nc3ccnc4ccc(-c5ccccn5)cc34)cc2)cc1 [GW407034]
Test Target: PLK4
Result Value: 15

Compound: C[C@@H](Oc1cc(-n2cnc3cc(-c4ccncc4)ccc32)sc1C(N)=O)c1ccccc1Cl [GSK479719]
Test Target: PLK4
Result Value: 29

Compound: Cn1ccc2ncnc(Oc3ccc(NC(=O)Nc4ccnc(C(F)(F)F)c4)c(Cl)c3)c21
Test Target: PLK4
Result Value: 11

Compound: COc1cccc(C2=C(Nc3cccc(Cl)c3)C(=O)NC2=O)c1 [SB-341556]
Test Target: PLK4
Result Value: 8

====

%Inh: recorded values
# Tested on: ACVR2A
# Experimental Conditions: concentration: 1 μM,replicates: in singlicate; n = 1
Readout: %Inh (%)

Compound: CN(c1ccccc1CNc1nc(Nc2ccc3c(c2)CC(=O)N3)ncc1C(F)(F)F)S(C)(=O)=O
Readout: %Inh
Result Value: 0
--
Compound: Cc1ccn2nc(-c3ccc(F)cc3)c(-c3ccncc3)c2c1.Cl [GW457859]
Readout: %Inh
Result Value: 0
--
Compound: CS(=O)(=O)Nc1ccc(-c2ccnc3[nH]ccc23)cc1 [GSK993273]
Readout: %Inh
Result Value: 0
--
Compound: Nc1nccc(-c2ccc3c(N)n[nH]c3c2)n1 [GSK1034945]
Readout: %Inh
Result Value: 0
--
Compound: Cn1ccc2ncnc(Oc3ccc(NC(=O)Nc4cc(C(C)(C)C)on4)c(Cl)c3)c21
Readout: %Inh
Result Value: 12
--
Compound: NC(=O)c1ccc(-c2cc3ncnc(SCC(=O)O)c3s2)cc1
Readout: %Inh
Result Value: 8
--
Compound: CCN1CCN(CCCC(=O)Nc2n[nH]c3nc(-c4ccc(O)cc4)c(Br)cc23)CC1 [SB-731579]
Readout: %Inh
Result Value: 0
--
Compound: O=C(NCC1CC1)c1ccc(-c2cc(C(=O)NC3CC3)ccc2F)cc1 [GW810445]
Readout: %Inh
Result Value: 0
--
Compound: O=c1[nH]cc(-c2ccc(O)cc2)c2sc(-c3ccncc3)cc12 [GSK1033723]
Readout: %Inh
Result Value: 0
--
Compound: Cl.Cl.NC[C@H](CC1CCCCC1)NC(=O)c1ccc(-c2ccnc3[nH]ccc23)s1 [GSK1581428]
Readout: %Inh
Result Value: 61
--
Compound: C[C@@H]1CCN(C(=O)N2CCCC2)C[C@@H]1N(C)c1ncnc2[nH]ccc12
Readout: %Inh
Result Value: 3
--
Compound: CNC(=O)c1ccccc1Nc1nc(Nc2cccc(CS(C)(=O)=O)c2)ncc1C.O=CO [GSK1520489]
Readout: %Inh
Result Value: 7
--
Compound: Cc1nnc(-c2ccc3occ(-c4ccc(S(C)=O)cc4)c3n2)o1 (centres unmarked)
Readout: %Inh
Result Value: 0
--
Compound: CC(C)S(=O)(=O)N1CCN(Cc2ccc3c(c2)nc(NC(=O)c2ccsc2)n3C[C@H](O)c2ccccc2)CC1 [GW635815]
Readout: %Inh
Result Value: 0
--
Compound: Cn1cc(-c2cccc3c(N)c(C(N)=O)nnc23)cn1
Readout: %Inh
Result Value: 27
--
Compound: COc1ccc(Nc2nccc(N3CCC(NC(=O)c4cccc(C#N)c4)C3)n2)cc1 (centres unmarked) [GSK1379730]
Readout: %Inh
Result Value: 0
--
Compound: Cc1ccc(Nc2ccnc(Nc3ccc4c(c3)CS(=O)(=O)C4)n2)cc1O.Cl [GW579362]
Readout: %Inh
Result Value: 72

====

# Test system: TGFBR1
# Experimental Conditions: concentration: 1 μM,replicates: in singlicate; n = 1
Readout: %Inh (%)

Chem Smiles: O=C(Nc1ccccc1)c1cccc(Oc2ccc3nccn3n2)c1
Readout: %Inh
Endpoint Unit: %
Result Value: 0
//
Chem Smiles: Cn1ccc2ncnc(Oc3ccc(NC(=O)Nc4cccc(C(F)(F)F)c4)c(F)c3)c21
Readout: %Inh
Endpoint Unit: %
Result Value: 0
//
Chem Smiles: Cc1n[nH]c2cc(Nc3ccnc(Nc4cccc(CN5CCOCC5)c4)n3)ccc12
Readout: %Inh
Endpoint Unit: %
Result Value: 54
//
Chem Smiles: CN1CCN(CCNc2nc3cc(Oc4ccc(NC(=O)Nc5cc(C(F)(F)F)ccc5F)cc4)ccc3[nH]2)CC1.Cl.Cl
Readout: %Inh
Endpoint Unit: %
Result Value: 6
//
Chem Smiles: CNC(=O)c1ccccc1Nc1nc(Nc2cccc(CS(C)(=O)=O)c2)ncc1C.O=CO
Readout: %Inh
Endpoint Unit: %
Result Value: 81

====

# System: BMX
# Experimental Conditions: concentration: 1 μM,replicates: in singlicate; n = 1

Compound: COc1cccc(OC)c1C(=O)Nc1cccc(-c2nn3ccccc3c2-c2ccnc(Nc3cccc(F)c3)n2)c1 [GSK361065]
Test Target: BMX
%Inh (%): 21

Compound: CN(c1ccc2c(c1)nc(NCc1ccc(F)cc1)n2C)c1ccnc(Nc2ccc(CS(C)(=O)=O)cc2)n1.Cl [GW813244]
Test Target: BMX
%Inh (%): 16

Compound: COC(=O)Nc1nc2cc(Oc3ccc(NC(=O)Nc4cc(C(F)(F)F)ccc4Cl)cc3)ccc2[nH]1.Cl [GW697465]
Test Target: BMX
%Inh (%): 95.2

Compound: COC(=O)c1cccc(NC(=O)NC2CCN(c3ccnc(NCc4ccc(F)cc4)n3)CC2)c1 [GSK1379860]
Test Target: BMX
%Inh (%): 11

====

# System: CAMK1D
# Experimental Conditions: concentration: 1 μM,replicates: in singlicate; n = 1
%Inh: recorded values
Readout: %Inh

Molecule: COc1cccc(OC)c1C(=O)Nc1cccc(-c2nn3ccccc3c2-c2ccnc(Nc3cccc(F)c3)n2)c1 [GSK361065]
Result Value: 13%
//
Molecule: Cn1ccc2ncnc(Oc3ccc(NC(=O)Nc4cccc(C(F)(F)F)c4)c(Cl)c3)c21
Result Value: 16%
//
Molecule: COC(=O)c1cccc(NC(=O)NC2CCN(c3ccnc(Nc4cc(OC)c(OC)c(OC)c4)n3)C2)c1 (stereo not drawn) [GSK1379767]
Result Value: 14%
//
Molecule: Cn1ccc2ncnc(Oc3ccc(NC(=O)Nc4ccnc(C(F)(F)F)c4)c(Cl)c3)c21
Result Value: 0%
//
Molecule: CCNCC(Cc1ccccc1)NC(=O)c1cc(Br)c(-c2ccnc3[nH]ccc23)s1.Cl.Cl (stereo not drawn) [GSK1383280]
Result Value: 32%
//
Molecule: CC(C)c1nc(-c2cccc(NS(=O)(=O)c3ccccc3)c2)c(-c2ccnc(Nc3ccc4c(c3)CN(C)CC4)n2)s1 [GSK1649598]
Result Value: 42%
//
Molecule: O=C(NCC1CC1)c1ccc(-c2cc(C(=O)NC3CC3)ccc2F)cc1 [GW810445]
Result Value: 0%
//
Molecule: CSc1nccc(-c2c(-c3ccc(F)cc3)ncn2CCCN2CCOCC2)n1.Cl [SB-217146]
Result Value: 12%
//
Molecule: O=C(Nc1n[nH]c2cc(-c3ccco3)ccc12)C1CC1 [SB-737447]
Result Value: 0%
//
Molecule: Cn1ccc2ncnc(Oc3ccc(NC(=O)Nc4cccc(C(F)(F)F)c4)c(F)c3)c21
Result Value: 12%
//
Molecule: Cc1cccc(-c2nc(Nc3ccncc3)c3sccc3n2)n1 [GW869641]
Result Value: 24%
//
Molecule: CN1CCN(CCNc2nc3cc(Oc4ccc(NC(=O)Nc5cc(C(F)(F)F)ccc5F)cc4)ccc3[nH]2)CC1.Cl.Cl [GW768504]
Result Value: 0%
//
Molecule: O=C1NCCc2[nH]c(-c3ccncc3)cc21
Result Value: 11%
//
Molecule: COc1cc2ncn(-c3cc(OCC4CCCCC4)c(C(N)=O)s3)c2cc1OC [GSK204559]
Result Value: 16%
//
Molecule: CCCC(=O)Nc1n[nH]c2ncccc12 [SB-601436]
Result Value: 3%
//
Molecule: Cn1ccc2ncnc(Oc3ccc(NC(=O)Nc4cc(C(C)(C)C)on4)c(Cl)c3)c21
Result Value: 14%
//
Molecule: Cc1cccc2c(-c3ccncc3)c(-c3ccc(F)cc3)nn12.Cl [GW461487]
Result Value: 4%
//
Molecule: Cc1ccc(CC(=O)N2CCc3cc(-c4cn(C)c5ncnc(N)c45)ccc32)cc1 [GSK2634758]
Result Value: 19%
